Biological target: T1, human IL-23 (human, UniProt P29460 23-328; Q9NPF7 20-189)
T1 construct: Recombinant (Ebioscience); HIS-tagged in flow cytometry, biotinylated in some assays; also called hIL-23; rhIL-23
T1 sequence 1: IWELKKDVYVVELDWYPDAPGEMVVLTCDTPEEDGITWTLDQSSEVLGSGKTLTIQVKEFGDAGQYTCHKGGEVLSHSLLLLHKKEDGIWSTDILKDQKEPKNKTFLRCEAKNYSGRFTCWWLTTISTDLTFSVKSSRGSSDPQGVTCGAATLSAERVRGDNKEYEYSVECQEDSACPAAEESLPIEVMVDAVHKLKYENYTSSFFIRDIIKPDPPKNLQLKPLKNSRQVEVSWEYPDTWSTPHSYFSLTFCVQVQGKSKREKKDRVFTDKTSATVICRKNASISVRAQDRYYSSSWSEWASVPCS
T1 sequence 2: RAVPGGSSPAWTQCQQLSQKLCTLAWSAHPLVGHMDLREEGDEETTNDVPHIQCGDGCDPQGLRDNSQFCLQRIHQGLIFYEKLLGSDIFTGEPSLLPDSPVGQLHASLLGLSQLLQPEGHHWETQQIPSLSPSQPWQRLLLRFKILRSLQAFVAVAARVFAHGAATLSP
Assay: SPR screen, crude scFv captured via FLAG
measured-parameter: koff (s⁻¹)

- scFv AV-F11 (scFv, scFv-80 variant: VH S112P; VL I75T; not shown: proprietary C-terminal FLAG tag) scFv: QVQLVQSGAEVKKPGASVKVSCKASGYTFTDYYLHWVRQAPGQGLEWMGWIDPENGDTEYAPKFQGRVTMTTDTSTSTAYMELRSLRSDDTAVYYCNANKELRYFDVWGQGTMVTVPSGGGGSGGGGSGGGGSEIVMTQSPATLSVSPGERATLSCRASQSISINLHWYQQKPGQAPRLLIYFASQSISGIPARFSGSGSGTEFTLTTSSLQSEDFAVYYCQQSNSFPLTFGGGTKVEIKR: 0.00028
- scFv BU-B1 (scFv, scFv-80 variant: VH L34M; not shown: proprietary C-terminal FLAG tag) scFv: QVQLVQSGAEVKKPGASVKVSCKASGYTFTDYYMHWVRQAPGQGLEWMGWIDPENGDTEYAPKFQGRVTMTTDTSTSTAYMELRSLRSDDTAVYYCNANKELRYFDVWGQGTMVTVSSGGGGSGGGGSGGGGSEIVMTQSPATLSVSPGERATLSCRASQSISINLHWYQQKPGQAPRLLIYFASQSISGIPARFSGSGSGTEFTLTISSLQSEDFAVYYCQQSNSFPLTFGGGTKVEIKR: 0.00029
- scFv CU-A6 (scFv, scFv-80 variant: VH F29L, T107A; VL S63F; not shown: proprietary C-terminal FLAG tag) scFv: QVQLVQSGAEVKKPGASVKVSCKASGYTLTDYYLHWVRQAPGQGLEWMGWIDPENGDTEYAPKFQGRVTMTTDTSTSTAYMELRSLRSDDTAVYYCNANKELRYFDVWGQGAMVTVSSGGGGSGGGGSGGGGSEIVMTQSPATLSVSPGERATLSCRASQSISINLHWYQQKPGQAPRLLIYFASQSISGIPARFFGSGSGTEFTLTISSLQSEDFAVYYCQQSNSFPLTFGGGTKVEIKR: 0.00019
